Values were extracted from patent US20240217978A1.

- TARGET DESC: UniProt P29274
pIC50: −log10 of the molar value.
MEASUREMENT KIND: pIC50

// below: answered compounds
>  <COMPOUND>
Nc1nc(N[C@@H](Cc2ccccc2)C(=O)N2CCCN(Cc3ccccc3)CC2)nc2nc(-c3ccco3)nn12

>  <pIC50>
7.70

$$$$
>  <COMPOUND>
CCCCN1CCN(C(=O)[C@@H](Nc2nc(N)n3nc(-c4ccco4)nc3n2)C2CC2)CC1

>  <pIC50>
7.80

$$$$

(A) Nc1nc(N2CCC[C@@H]2C(=O)N2CCN(C(=O)Nc3ccccc3)CC2)nc2nc(-c3ccco3)nn12
(B) CC(F)(F)CN1CCC(C2CCN(C(=O)[C@@H]3CCN3c3cc4nc(-c5ccco5)nn4c(N)n3)CC2)CC1
Lab note: record which item had the higher pIC50, A or B . // respond with label for picked entry
B
(B: 8.70, A: 5.02)

* * *

Reported values: IC50 for human adenosine A2a receptor (Homo sapiens (Human), UniProt P29274), one per item.
MEASUREMENT KIND: IC50 (nM)

// below: answered molecules
>  <MOLECULE>
COCCN1CCN(C(=O)[C@@H]2CCN2c2nc(N)n3nc(-c4ccco4)nc3n2)CC1 [Example 107]

>  <IC50 [nM]>
9

$$$$
>  <MOLECULE>
Nc1nc(N2CCC[C@H]2C(=O)N2CC3CCC(C2)N3Cc2ccc(F)cc2F)nc2nc(-c3ccco3)nn12 [Example 50]

>  <IC50 [nM]>
9

$$$$

(1) Nc1nc(N2CC[C@H]2C(=O)N2CCN(CCCC(F)(F)F)CC2)nc2nc(-c3ccco3)nn12 [Example 264]
(2) Cc1ccc(-c2nc3nc(N4CC[C@H]4C(=O)N4CCN(CC(C)(F)F)CC4)nc(N)n3n2)o1 [Example 314]
From the items above, decide which of 1 and 2 has the lower IC50 reading. // respond with label for picked entry
1
(1: 10 nM, 2: 19 nM)

* * *

- TARGET DESC: human adenosine A2a receptor (Homo sapiens (Human), UniProt P29274)
- Sequence (P29274 whole entry): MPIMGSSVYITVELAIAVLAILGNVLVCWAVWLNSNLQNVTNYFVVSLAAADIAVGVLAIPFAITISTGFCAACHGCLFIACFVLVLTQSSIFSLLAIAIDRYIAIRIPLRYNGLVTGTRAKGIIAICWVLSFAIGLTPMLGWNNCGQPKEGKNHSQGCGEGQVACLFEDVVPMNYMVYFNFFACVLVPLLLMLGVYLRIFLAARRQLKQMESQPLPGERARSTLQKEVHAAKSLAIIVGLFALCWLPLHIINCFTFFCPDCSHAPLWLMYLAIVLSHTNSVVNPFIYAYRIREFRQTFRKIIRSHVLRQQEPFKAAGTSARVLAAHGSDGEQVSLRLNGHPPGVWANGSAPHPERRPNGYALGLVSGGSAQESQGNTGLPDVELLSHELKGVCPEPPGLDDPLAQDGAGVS
MEASUREMENT KIND: IC50 (nM)

>  <MOLECULE>
CC(C)(C)C1CCC(N2CCN(C(=O)[C@@H]3CCCN3c3nc(N)n4nc(-c5ccco5)nc4n3)CC2)CC1 (stereo partly shown)

>  <READING>
10

$$$$
>  <MOLECULE>
CC[C@H](Nc1nc(N)n2nc(-c3ccco3)nc2n1)C(=O)N1CCN(CC(C)(F)F)CC1

>  <READING>
10

$$$$
>  <MOLECULE>
Nc1nc(N2CCC[C@H]2C(=O)N2CCN(CC3(C(F)(F)F)CCCCC3)CC2)nc2nc(-c3ccco3)nn12 [Example 285]

>  <READING>
0.2

$$$$
>  <MOLECULE>
Nc1nc(N2CCC[C@H]2C(=O)N2CCC(C(=O)Nc3ccccc3)CC2)nc2nc(-c3ccco3)nn12

>  <READING>
14

$$$$
>  <MOLECULE>
Nc1nc(N2CCC[C@H]2C(=O)N2CC3CCC(C2)N3C(=O)c2ccccc2)nc2nc(-c3ccco3)nn12

>  <READING>
6

$$$$
>  <MOLECULE>
Nc1nc(N2CC[C@H]2C(=O)N2CCN(CC(F)(F)C(F)(F)C(F)(F)F)CC2)nc2nc(-c3ccco3)nn12

>  <READING>
0.8

$$$$
>  <MOLECULE>
Nc1nc(N2CCC[C@H]2C(=O)N2CCn3nc(C(F)(F)F)nc3C2)nc2nc(-c3ccco3)nn12

>  <READING>
21

$$$$

* * *

Reported values: IC50 for UniProtKB P29274, one per item.
MEASUREMENT KIND: IC50 (nM)

>  <CHEMICAL STRING>
C[C@H](Nc1nc(N)n2nc(-c3ccco3)nc2n1)C(=O)N1CCN(CC(C)(C)F)CC1

>  <IC50, nM>
9

$$$$
>  <CHEMICAL STRING>
C[C@H](Nc1nc(N)n2nc(-c3ccco3)nc2n1)C(=O)N1CCN(c2nccs2)CC1

>  <IC50, nM>
13

$$$$
>  <CHEMICAL STRING>
Nc1nc(N2CCC[C@H]2C(=O)N2CCC(C3CCN(C(=O)c4ccccc4)CC3)CC2)nc2nc(-c3ccco3)nn12

>  <IC50, nM>
9

$$$$

(A) Nc1nc(N2CCC[C@H]2C(=O)N2CCN(CC(F)(F)C(F)F)CC2)nc2nc(-c3ccco3)nn12
(B) Nc1nc(N2CCC[C@H]2C(=O)N2CCN(CC(F)(F)C(F)F)CC2)nc2oc(-c3ccco3)nc12
From the items above, decide which of A and B has the lower IC50 reading. // respond with label for picked entry
A

* * *

Reported values: pIC50 for human adenosine A2a receptor (Homo sapiens (Human)), one per item.
pIC50: −log10 of the molar value.
MEASUREMENT KIND: pIC50

// below: answered compounds
>  <COMPOUND>
Nc1nc(N2CCCN2C(=O)N2CCN(CC(F)(F)F)CC2)nc2nc(-c3ccco3)nn12

>  <pIC50>
8.10

$$$$
>  <COMPOUND>
Nc1nc(N2CCC[C@H]2C(=O)N2CCC3(CC2)CN(C(=O)Nc2ccccc2)C3)nc2nc(-c3ccco3)nn12

>  <pIC50>
8.70

$$$$
>  <COMPOUND>
Nc1nc(N2CCC[C@H]2C(=O)N2CCN(CCN3CCOCC3)CC2)nc2nc(-c3ccco3)nn12

>  <pIC50>
8.10

$$$$
>  <COMPOUND>
Nc1nc(N2CCC[C@H]2C(=O)N2CCN(CC3CCC(C(F)(F)F)CC3)CC2)nc2nc(-c3ccco3)nn12 (stereo partly shown)

>  <pIC50>
7.96

$$$$
>  <COMPOUND>
CC(C)(F)CN1CCN(C(=O)[C@@H](Nc2nc(N)n3nc(-c4ccco4)nc3n2)C2CCCCC2)CC1

>  <pIC50>
8.52

$$$$
>  <COMPOUND>
Cc1ncc(C(=O)N2CCN(C(=O)[C@@H]3CCCN3c3nc(N)n4nc(-c5ccco5)nc4n3)CC2)s1

>  <pIC50>
7.96

$$$$
>  <COMPOUND>
CC(C)C(=O)N1CCN(C(=O)[C@H](Cc2ccccc2)Nc2nc(N)n3nc(-c4ccco4)nc3n2)CC1

>  <pIC50>
8.90

$$$$
>  <COMPOUND>
Nc1nc(N2CCC[C@H]2C(=O)N2CCN(C3CCC3)CC2)nc2nc(-c3ccco3)nn12

>  <pIC50>
8.05

$$$$
>  <COMPOUND>
Cn1cc(N2CCN(C(=O)[C@@H]3CCCN3c3nc(N)n4nc(-c5ccco5)nc4n3)CC2)cn1

>  <pIC50>
8.70

$$$$
>  <COMPOUND>
CCCCN1CCN(C(=O)[C@@H](Nc2nc(N)n3nc(-c4ccco4)nc3n2)C2CCC2)CC1

>  <pIC50>
7.70

$$$$

(1) Nc1nc(NCC(=O)N2CCN(Cc3ccc(F)cc3F)CC2)nc2nc(-c3ccco3)nn12
(2) C[C@H](Nc1nc(N)c2nc(-c3ccco3)sc2n1)C(=O)N1CCN(C(=O)CC(C)(C)O)CC1
From the items above, decide which of 1 and 2 has the lower pIC50 reading. // respond with label for picked entry
2

* * *

Reported values: pIC50 for human adenosine A2a receptor (Homo sapiens (Human)), one per item.
pIC50: −log10 of the molar value.
MEASUREMENT KIND: pIC50

>  <COMPOUND>
CC(C)(C(=O)N1CCN(C(=O)[C@@H]2CCCN2c2nc(N)n3nc(-c4ccco4)nc3n2)CC1)C(F)(F)F [Example 86]

>  <pIC50>
7.82

$$$$
>  <COMPOUND>
Nc1nc(N2CCC[C@H]2C(=O)N2C[C@@H]3C[C@H]2CN3Cc2ccc(F)cc2F)nc2nc(-c3ccco3)nn12 [Example 44]

>  <pIC50>
8.00

$$$$
>  <COMPOUND>
Nc1nc(N2CCC[C@H]2C(=O)N2CCC(C(=O)Nc3cccc(C(F)F)c3)CC2)nc2nc(-c3ccco3)nn12 [Example 132]

>  <pIC50>
7.96

$$$$
>  <COMPOUND>
CCCCN1CCN(C(=O)[C@H](CC)Nc2nc(N)n3nc(-c4ccco4)nc3n2)CC1 [Example 172]

>  <pIC50>
7.89

$$$$
